- System: U2OS
- testSummary: Multiplex assay against U2OS
- Assay type: toxicity, cell-based
- testSettings: human, 24 h, 10 µM, compound concentration 10 uM, replicate 2
metric: Population Pyknosed Nuclei (%)
Respond with the bare value in %.

>  <compound>
OCCCNc1cc(-c2ccnc(Nc3cccc(Cl)c3)n2)ccn1

>  <tgt>
U2OS

>  <unitsLabel>
%

>  <Population Pyknosed Nuclei (%)>
20

$$$$

Q: # get_value(readout='Population Pyknosed Nuclei (%)', item= CN1CCC(C(=O)c2cccc(NC(=O)c3c(F)cc(F)cc3F)n2)CC1 )
A: 15

Q: Entry Cc1cc(NC(=O)NCCN2CCC(O)(Cc3ccccc3)CC2)c2ccccc2n1 [PALOSURAN] : reported Population Pyknosed Nuclei (%) = ?
A: 6

Q: Fill in: Population Pyknosed Nuclei (%) of Cc1c(Cc2ccc3ccccc3n2)c2cc(F)ccc2n1CC(=O)O [TIMAPIPRANT] is ___
A: 7

Q: Return reported Population Pyknosed Nuclei (%); argument: Cl.Cl.OCCOCCN1CCN(C(c2ccccc2)c2ccc(Cl)cc2)CC1 (stereo not given) [HYDROXYZINE HYDROCHLORIDE]
A: 7

----------
- Test system: Fibroblast
- testSummary: Multiplex assay against human fibroblast
- Format: toxicity, cell-based
- testSettings: 48 h, 10 µM, compound concentration 10 uM, replicate 2
Non-standard residues stand in square brackets, D forms with d. Residues, ends and D or L forms follow the SMILES beside them.
Measured Population Mitochondria Different-Phenotype (%) by item

Study these solved cases before continuing.
>  <compound>
CC(C)C[C@@H]1NC(=O)[C@@H](C(C)C)NC(=O)[C@@H]2CCCN2C(=O)[C@@H](CC(=O)O)NC(=O)[C@@H](Cc2c[nH]c3ccccc23)NC1=O [BQ-123] (cyclo(L[dW][dD]P[dV]))

>  <val>
3%

$$$$
>  <compound>
COc1cc(C(=O)N2CC[C@@H](O)[C@@H](N)C2)cc2nc(-c3cc4ccccc4n3CC3CC3)n(C)c12.Cl

>  <val>
36%

$$$$
>  <compound>
Cc1c(Cc2ccc3ccccc3n2)c2cc(F)ccc2n1CC(=O)O [TIMAPIPRANT]

>  <val>
1%

$$$$
>  <compound>
CN(C)C/C=C/C(=O)Nc1ccc(C(=O)N2CCCC(Nc3ncc(Cl)c(-c4c[nH]c5ccccc45)n3)C2)cc1 (stereo not drawn)

>  <val>
29%

$$$$
>  <compound>
Cc1cc(O)c(-c2ccc([C@@H](C)CN(C)C)cc2)c2c1[nH]c(=O)c1sccc12

>  <val>
30%

$$$$

Q: Fill in the blank: the reported Population Mitochondria Different-Phenotype (%) of CN(C)C(=O)Cn1cc(-c2ccc(-c3nnc4ccccn34)cc2)cn1 is ____.
A: 8%

Q: Any idea what its Population Mitochondria Different-Phenotype (%) is? The compound is Cc1ccc(OCC(O)C(C)NC(C)C)c2c1CCC2.Cl (stereo not drawn)
A: 10%

Q: Sample CN1CCN2c3ccccc3Cc3ccccc3C2C1.Cl (stereo not drawn) [MIANSERIN HYDROCHLORIDE] — what was its Population Mitochondria Different-Phenotype (%)?
A: 1%

Q: Item under review: CCc1nn2c(C)cc(C)nc2c1Cc1ccc(-c2nnc(C3CCNCC3)o2)cc1 . Reported Population Mitochondria Different-Phenotype (%)?
A: 17%

Q: Given COc1cc2nc(N3CCN(C(=O)COc4c(OC)cccc4C(C)C)CC3)nc(N)c2cc1OC.Cl.Cl , state its recorded Population Mitochondria Different-Phenotype (%).
A: 0%

Q: Consider the compound Cn1cc(C(=O)OCC2CCN(CCNS(C)(=O)=O)CC2)c2ccccc21 and give its measured Population Mitochondria Different-Phenotype (%).
A: 8%

Q: Quick one: Population Mitochondria Different-Phenotype (%) of O=c1ccc2ccc(OCCCCN3CCN(c4cccc5sccc45)CC3)cc2[nH]1 [BREXPIPRAZOLE] ?
A: 20%

Q: What value of measured Population Mitochondria Different-Phenotype (%) is listed for C=CCN1C[C@H](C(=O)N(CCCN(C)C)C(=O)NCC)C[C@@H]2c3cccc4[nH]cc(c34)C[C@H]21 [CABERGOLINE] ?
A: 11%

----------
- Test system: Fibroblast
- testSummary: Multiplex assay against human fibroblast
- Format: toxicity, cell-based
- testSettings: 48 h, 10 µM, compound concentration 10 uM, replicate 2
Record rule met whenever Population Healthy Nuclei (%) is at 40% or higher; record rule not met when lower.

Solved cases (5 shown):
>  <molecule>
C[C@H](NC(=O)CNC(=O)c1cccc(Cl)c1)c1ccccc1

>  <tgt>
Fibroblast

>  <assignedCategory>
rule met

$$$$
>  <molecule>
COc1cc2nc(N3CCN(C(=O)c4ccco4)CC3)nc(N)c2cc1OC.Cl [PRAZOSIN HYDROCHLORIDE]

>  <tgt>
Fibroblast

>  <assignedCategory>
rule met

$$$$
>  <molecule>
CCCCC[C@H](O)/C=C/[C@H]1[C@H](O)CC(=O)[C@@H]1CCCCCCC(=O)O [ALPROSTADIL]

>  <tgt>
Fibroblast

>  <assignedCategory>
rule met

$$$$
>  <molecule>
COC(c1ccccc1)(c1ccccc1)[C@H](Oc1nc(C)cc(C)n1)C(=O)O [AMBRISENTAN]

>  <tgt>
Fibroblast

>  <assignedCategory>
rule not met

$$$$
>  <molecule>
CCC(=O)OCC(=O)[C@@]1(OC(=O)CC)[C@@H](C)C[C@H]2[C@@H]3CCC4=CC(=O)C=C[C@]4(C)[C@@]3(Cl)[C@@H](O)C[C@@]21C [BECLOMETHASONE DIPROPIONATE]

>  <tgt>
Fibroblast

>  <assignedCategory>
rule not met

$$$$

Q: In plain terms: is recorded Population Healthy Nuclei (%) at least 40% for Nc1nc(CC(=O)Nc2ccc(CCNC[C@H](O)c3ccccc3)cc2)cs1 [MIRABEGRON] ?
A: rule met

Q: # bool: Population Healthy Nuclei (%) of Cc1cc(=O)n(C)c2cc(N3C(=O)CC[C@H](NS(=O)(=O)CC(C)C)[C@H]3c3ccc(Cl)cc3)ccc12 >= 40%
A: rule not met

----------
# Lookup of reported Population Tubulin-Different-Phenotype (%) keyed by entry
- Tested on: HEK-293T
- testSummary: Multiplex assay against HEK293T
- Assay type: toxicity, cell-based
- testSettings: human, 48 h, 1 µM, compound concentration 1 uM, replicate 2
Non-standard residues stand in square brackets, D forms with d. Residues, ends and D or L forms follow the SMILES beside them.
Be sure to follow the number with its unit.

// below: answered molecules
>  <molecule>
CC(C)(C)c1ccc(CSc2cnn(C(C)(C)C)c(=O)c2Cl)cc1

>  <val>
13%

$$$$
>  <molecule>
N[C@](CC1c2ccccc2Oc2ccccc21)(C(=O)O)[C@H]1C[C@@H]1C(=O)O

>  <val>
10%

$$$$
>  <molecule>
CSc1nc(NC2CCCC2)c([N+](=O)[O-])c(NC2CCCC2)n1

>  <val>
24%

$$$$
>  <molecule>
COc1cc2nc(N3CCN(C(=O)c4ccco4)CC3)nc(N)c2cc1OC.Cl [PRAZOSIN HYDROCHLORIDE]

>  <val>
9%

$$$$
>  <molecule>
O=C(O)CCC/C=C\CC1C(O)CC(O)C1/C=C/C(O)COc1cccc(Cl)c1 (configuration not stated)

>  <val>
11%

$$$$
>  <molecule>
CC(C)C[C@@H]1NC(=O)[C@@H](C(C)C)NC(=O)[C@@H]2CCCN2C(=O)[C@@H](CC(=O)O)NC(=O)[C@@H](Cc2c[nH]c3ccccc23)NC1=O [BQ-123] (cyclo(L[dW][dD]P[dV]))

>  <val>
10%

$$$$

Now for another entry.
Q: Look up Population Tubulin-Different-Phenotype (%) with HEK-293T for this molecule: CN1C[C@H](C(=O)N[C@]2(C)O[C@@]3(O)[C@@H]4CCCN4C(=O)[C@H](Cc4ccccc4)N3C2=O)C[C@@H]2c3cccc4[nH]cc(c34)C[C@H]21.CS(=O)(=O)O [DIHYDROERGOTAMINE MESYLATE]
A: 9%

----------
- Tested on: U2OS
- testSummary: Multiplex assay against U2OS
- Type: toxicity, cell-based
- testSettings: human, 24 h, 10 µM, compound concentration 10 uM, replicate 2
// classify: if (Population Healthy Nuclei (%) < 70%) condition met else condition not met

Some solved entries appear below for comparison.
>  <chemicalString>
COc1cc(C(=O)N2CC[C@@H](O)[C@@H](N)C2)cc2nc(-c3cc4ccccc4n3CC3CC3)n(C)c12.Cl

>  <assignedCategory>
condition met

$$$$
>  <chemicalString>
CC(C)(O)C(=O)N1CCN(c2ccc(C(F)(F)F)c(C3=C(c4c[nH]c5ccccc45)C(=O)NC3=O)c2)CC1

>  <assignedCategory>
condition met

$$$$
>  <chemicalString>
Cc1sc2c(c1C)C(c1ccc(Cl)cc1)=N[C@H](CC(=O)OC(C)(C)C)c1nnc(C)n1-2

>  <assignedCategory>
condition met

$$$$
>  <chemicalString>
O=c1nc2[nH]c3ccccc3nc-2c(=O)[nH]1

>  <assignedCategory>
condition not met

$$$$

Here is another compound to look at.
Q: State whether 70% exceeds Population Healthy Nuclei (%) recorded for Cc1cc(NC(=O)NCCN2CCC(O)(Cc3ccccc3)CC2)c2ccccc2n1 .
A: condition not met
